These data points were gathered from patent US10562912B2.

# Test system: DU-145
# Experiment Summary: Cell growth inhibition assay, prostate cancer cell line DU-145
# Assay type: cell-based
# Condition Summary: Homo sapiens, DU-145 prostate cancer cell line
Experimental Readout: IC50 (µM)

{"columns": ["Molecule", "IC50 / µM"],
 "data": [
  ["Cn1cc(Cc2cc(OC(F)(F)C(F)F)cc(C(C)(C)c3cc(Cl)cc(NC(=O)c4cc5cc(NS(C)(=O)=O)ccc5s4)c3)c2)cn1 [Example 138]", 0.018]
]}

[P] COc1cccc(C(C)(C)c2cc(Cl)cc(NC(=O)c3cc4cc(NS(C)(=O)=O)ccc4s3)c2)c1 [Example 106]
[Q] CS(=O)(=O)Nc1ccc2sc(C(=O)Nc3cc(Cl)cc(Nc4ccc(F)cc4F)c3)cc2c1 [Example 438]
Asked: Please indicate which has the smaller reported IC50: P , or Q . API: response body contains the label of the selected item.
Given back: P

[1] CC(C)(c1ccc(S(C)(=O)=O)cc1)c1cc(Cl)cc(NC(=O)c2cc3cc(NS(C)(=O)=O)ccc3s2)c1 [Example 161]
[2] CC(C)Oc1cc(CN2CCNCC2)cc(C(C)(C)c2cc(Br)cc(NC(=O)c3cc4cc(NS(C)(=O)=O)ccc4s3)c2)c1 [Example 124]
[3] CC(C)(c1ccc(Cl)cc1)c1cc(Cl)cc(NC(=O)c2cc3cc(Cl)c(NS(C)(=O)=O)cc3s2)c1 [Example 184]
[4] CC(C)(c1cc(Cl)cc(NC(=O)c2cc3cc(NS(C)(=O)=O)ccc3s2)c1)c1cc(OCC(F)(F)F)cc(OC(F)(F)F)c1 [Example 88]
[5] CC(C)(c1cc(Br)cc(NC(=O)c2cc3cc(NS(C)(=O)=O)ccc3s2)c1)c1cccc(OCC(N)=O)c1 [Example 43]
Asked: Hey, quick one: sort these by IC50, low to high? Put the labels in the order asked and list them.
Given back: 4, 3, 1, 2, 5
(4: 0.008 µM, 3: 0.04 µM, 1: 0.72 µM, 2: 2.1 µM, 5: 4.9 µM)

[I] CS(=O)(=O)Nc1ccc2sc(C(=O)Nc3cc(Br)cc(C4(c5ccc(F)cc5F)CC4)c3)cc2c1 [Example 426]
[II] CS(=O)(=O)Nc1cc2cc(C(=O)Nc3cc(Cl)cc(Oc4ccc(F)cc4)c3)sc2cc1Cl [Example 478]
[III] CC(C)(c1cccc(F)c1)c1cc(Cl)cc(NC(=O)c2cc3cc(NS(C)(=O)=O)ccc3s2)c1 [Example 65]
Asked: Sequence the entries by IC50, beginning with the highest number. A ranking is expressed here by listing the labels in the requested order.
Given back: I, II, III

* * *

# Tested on: LNCaP
# Experiment Summary: Cell growth inhibition assay, prostate cancer cell line LNCaP (medium with 10 ng/mL IL-6)
# Assay type: cell-based
# Condition Summary: Homo sapiens, medium supplemented with 10 ng/mL of IL-6, 10,000 cells/well
# Procedure: The inhibitory effects of the compounds of the present invention against the growth of cancer cells were evaluated as shown below. […] Subsequently, the cells were observed under microscope and drug precipitation and particular findings were investigated and recorded. […]
Experimental Readout: IC50 (µM)

Please review the entries below; each comes with its answer.
{"columns": ["Compound", "IC50 (µM)"],
 "data": [
  ["CCC(CC)(c1cc(NC(=O)c2cc3cc(NS(C)(=O)=O)ccc3s2)cc(OC)c1)c1cc(OC)cc(OC(F)(F)F)c1 [Example 54]", 0.17],
  ["CS(=O)(=O)Nc1ccc2cc(C(=O)Nc3cc(-c4ccc(F)cc4F)cc(N4CCOCC4)c3)[nH]c2c1 [Example 374]", 9.9],
  ["Cc1c(C(=O)Nc2cc(Br)cc(-c3ccc(F)cc3F)c2)sc2cc(NS(C)(=O)=O)ccc12 [Example 309]", 5.9],
  ["CC(C)(c1cc(Cl)cc(NC(=O)c2cc3cc(NS(C)(=O)=O)ccc3s2)c1)c1cccs1 [Example 170]", 0.059],
  ["CC(C)Oc1cc(CN2CCCC2)cc(C(C)(C)c2cc(Cl)cc(NC(=O)c3cc4cc(NS(C)(=O)=O)ccc4s3)c2)c1 [Example 125]", 2.1],
  ["COc1ccc(Oc2cc(Cl)cc(NC(=O)c3cc4cc(NS(C)(=O)=O)ccc4s3)c2)cc1 [Example 447]", 0.49]
]}

[A] CC(C)(c1cc(Cl)cc(NC(=O)c2cc3cc(NS(C)(=O)=O)ccc3s2)c1)c1ccc[nH]1 [Example 166]
[B] CC(C)Oc1cc(OC(F)(F)F)cc(C(C)(C)c2cc(Cl)cc(NC(=O)c3cc4cc(N5CCCS5(=O)=O)ccc4s3)c2)c1 [Example 212]
[C] CC(C)(C)OC(=O)n1c(C(=O)Nc2cccc(-c3ccccc3C(F)(F)F)c2)cc2ccc([N+](=O)[O-])cc21 [Example 263]
Asked: Your job: order these 3 records by IC50, ascending. Order the labels as requested and give them as your answer.
Given back: B, A, C
(B: 0.075 µM, A: 1 µM, C: 8 µM)

[A] CS(=O)(=O)Nc1ccc2oc(C(=O)Nc3cc(Br)cc(-c4ccc(F)cc4F)c3)cc2c1 [Example 306]
[B] CS(=O)(=O)Nc1ccc2sc(C(=O)Nc3cc(Cl)cc(Oc4cccc(Cl)c4)c3)cc2c1 [Example 456]
Asked: Identify the entry with the smaller IC50: A or B . Record your answer as the label of the chosen record.
Given back: B
(B: 0.3 µM, A: 1.7 µM)

[A] CC(C)(c1ccc(Cl)cc1)c1cc(Cl)cc(NC(=O)c2cc3cc(NS(C)(=O)=O)c(Cl)cc3s2)c1 [Example 172]
[B] CS(=O)(=O)Nc1ccc2sc(C(=O)Nc3cc(Cl)cc(Oc4ccc(C(F)(F)F)cc4)c3)cc2c1 [Example 465]
Asked: Return label of the item with the larger IC50. Candidates: A , B . // output: label of the selected item
Given back: B
(B: 0.063 µM, A: 0.009 µM)

[P] COc1cccc(-c2cc(NC(=O)c3cc4ccc(NS(C)(=O)=O)cc4[nH]3)cc(-c3ccc(F)cc3F)c2)n1 [Example 383]
[Q] COc1cc(OC(F)(F)F)cc(C(C)(C)c2cc(Br)cc(NC(=O)c3cc4cc(NS(C)(=O)=O)ncc4[nH]3)c2)c1 [Example 99, 2,2,2-trifluoroacetate]
Asked: Pick one: P or Q . Which one has the lower reported IC50? Give the label under which the chosen entry appears.
Given back: Q
(Q: 1.5 µM, P: 4.3 µM)

* * *

# Tested on: DU-145
# Experiment Summary: Cell growth inhibition assay, prostate cancer cell line DU-145
# Format: cell-based
# Condition Summary: Homo sapiens, DU-145 prostate cancer cell line
Experimental Readout: IC50 (µM)

[I] CC(C)(c1ccsc1)c1cc(Cl)cc(NC(=O)c2cc3cc(NS(C)(=O)=O)ccc3s2)c1
[II] CC(C)Oc1cc(-c2ccnn2C)cc(C(C)(C)c2cc(Cl)cc(NC(=O)c3cc4cc(NS(C)(=O)=O)ccc4s3)c2)c1
[III] CC(C)Oc1cc(OC(F)(F)F)cc(C(C)(C)c2cc(Cl)cc(NC(=O)c3cc4cc(NS(C)(=O)=O)ccc4s3)c2)c1
[IV] CC(C)Oc1cc(CN2CCN(C3COC3)CC2)cc(C(C)(C)c2cc(Cl)cc(NC(=O)c3cc4cc(NS(C)(=O)=O)ccc4s3)c2)c1
Asked: Please give the order of these compounds when sorted by IC50, largest value leading. Write out the labels following the order that was asked for.
Given back: IV, II, I, III

* * *

# Measurement Target: STAT3 (Homo sapiens)
# Construct: plasmid pSTAT3-TA-luc), which contains a stably operating STAT3 promoter; endogenous in cells
# Sequence (P40763 whole entry): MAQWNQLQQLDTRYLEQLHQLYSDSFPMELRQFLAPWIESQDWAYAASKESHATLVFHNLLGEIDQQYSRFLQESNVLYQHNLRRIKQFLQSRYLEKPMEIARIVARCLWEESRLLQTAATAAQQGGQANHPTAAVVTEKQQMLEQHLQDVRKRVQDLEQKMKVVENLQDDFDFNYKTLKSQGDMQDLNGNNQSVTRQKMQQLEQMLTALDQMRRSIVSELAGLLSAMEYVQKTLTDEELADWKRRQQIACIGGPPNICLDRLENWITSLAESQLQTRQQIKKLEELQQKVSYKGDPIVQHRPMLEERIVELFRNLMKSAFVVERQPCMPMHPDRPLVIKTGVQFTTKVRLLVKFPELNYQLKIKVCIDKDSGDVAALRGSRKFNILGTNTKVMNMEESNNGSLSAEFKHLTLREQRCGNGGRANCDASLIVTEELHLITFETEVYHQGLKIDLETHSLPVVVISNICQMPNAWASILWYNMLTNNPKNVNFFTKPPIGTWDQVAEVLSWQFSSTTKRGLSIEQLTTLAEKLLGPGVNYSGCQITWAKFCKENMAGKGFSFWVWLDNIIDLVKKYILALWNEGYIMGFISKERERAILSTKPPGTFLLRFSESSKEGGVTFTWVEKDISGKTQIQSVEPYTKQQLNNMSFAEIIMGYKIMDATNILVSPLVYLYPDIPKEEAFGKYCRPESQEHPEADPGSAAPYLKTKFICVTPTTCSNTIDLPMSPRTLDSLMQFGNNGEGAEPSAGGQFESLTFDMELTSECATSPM
# Experiment Summary: STAT3 reporter gene assay (luciferase), LNCaP stable cell line (pSTAT3-TA-luc), IL-6 stimulation
# Assay type: cell-based
Experimental Readout: IC50 (µM)

{"columns": ["Smiles", "Measurement Target", "Experimental Readout", "Endpoint Value"],
 "data": [
  ["O=C(Nc1cc(-c2ccc(F)cc2F)ccn1)c1cc2ccc(NS(=O)(=O)C3CC3)cc2[nH]1", "STAT3 (Homo sapiens)", "IC50", 4.5],
  ["CN(c1cc(Cl)cc(NC(=O)c2cc3cc(NS(C)(=O)=O)c(Cl)cc3s2)c1)c1ccc(F)cc1F", "STAT3 (Homo sapiens)", "IC50", 0.021],
  ["CC(C)COc1cc(OC(F)(F)F)cc(C(C)(C)c2cc(Cl)cc(NC(=O)c3cc4cc(NS(C)(=O)=O)ccc4s3)c2)c1", "STAT3 (Homo sapiens)", "IC50", 0.021],
  ["CC(C)Oc1cc(OC(F)(F)F)cc(C(C)(C)c2cc(Cl)cc(NC(=O)c3cc4c(F)c(NS(C)(=O)=O)ccc4s3)c2)c1", "STAT3 (Homo sapiens)", "IC50", 0.091]
]}

[a] CC(C)(c1cccc(NC(=O)c2cc3ccc(NS(C)(=O)=O)cc3[nH]2)c1)c1cccc(OC(F)(F)F)c1
[b] CC(C)Oc1cc(CN2CCN(C3COC3)CC2)cc(C(C)(C)c2cc(Cl)cc(NC(=O)c3cc4cc(NS(C)(=O)=O)ccc4s3)c2)c1
Asked: Compare a and b by numeric IC50 and name the larger one. Give the label under which the chosen entry appears.
Given back: b
